# System: LOC_OS01G01410-cb001;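 also: purified Escherichia coli-expressed rice kinase domain construct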
# procedure-text: thermal shift delta Tm vs DMSO control; higher = stronger stabilization (binding)
# condition-context: 12.5 µM; protein concentration 2 µM
parameter-measured: thermal shift delta Tm (°C)

# compound, assay-system, result
records = [
    ("CNC(=O)c1cccc(-c2ccc3c(N4CCOC[C@@H]4C)nc(N4CCOC[C@@H]4C)nc3n2)c1", "LOC_OS01G01410-cb001", 0.53),
    ("Cn1nccc1Nc1nccc(-c2ccn([C@H](CO)c3ccc(Cl)c(F)c3)c(=O)c2)n1", "LOC_OS01G01410-cb001", 0.99),
    ("Oc1c(F)cc(-c2cnccc2-c2ccc(N3CCOCC3)cc2)cc1F", "LOC_OS01G01410-cb001", 0.86),
    ("C=CC(=O)N1CCC[C@@H](n2nc(-c3ccc(Oc4ccccc4)cc3)c3c(N)ncnc32)C1", "LOC_OS01G01410-cb001", 0.18),
    ("CCN1/C(=C/C(C)=O)Sc2ccc(OC)cc21", "LOC_OS01G01410-cb001", 0.21),
    ("CS(=O)(=O)N1CCN(Cc2cc3nc(-c4cccc5[nH]ncc45)nc(N4CCOCC4)c3s2)CC1", "LOC_OS01G01410-cb001", 1.2),
    ("O=C(Nc1ccccc1C(=O)NC1CCCCNC1=O)c1cc2ccccc2s1 (configuration not stated)", "LOC_OS01G01410-cb001", -0.16),
    ("CNC(=O)c1nn(C)c2c1C(C)(C)Cc1cnc(Nc3ccc(N4CCN(C)CC4)cc3)nc1-2", "LOC_OS01G01410-cb001", 2.97),
    ("CN(C)C/C=C/C(=O)Nc1cc2c(Nc3ccc(F)c(Cl)c3)ncnc2cc1O[C@H]1CCOC1 [Afatinib (BIBW2992) Dimaleate]", "LOC_OS01G01410-cb001", 0.1),
    ("CC(C)S(=O)(=O)c1ccc2nccc(Nc3ccc4scnc4c3)c2c1", "LOC_OS01G01410-cb001", 0.88),
    ("C=CC(=O)Nc1cccc(Nc2nc(Nc3ccc(NC4CN(CCF)C4)cc3OC)ncc2C(F)(F)F)c1", "LOC_OS01G01410-cb001", 0.5),
    ("COc1cc(C(=O)N2CCC(N3CCN(C)CC3)CC2)ccc1Nc1ncc2c(n1)N(C)c1ccccc1C(=O)N2C", "LOC_OS01G01410-cb001", 0.19),
    ("COc1cc2/c(=N/c3ccc(Br)cc3F)nc[nH]c2cc1OCC1CCN(C)CC1 [Vandetanib (ZD6474)]", "LOC_OS01G01410-cb001", 1.05),
    ("CC(C)(O)CC(=O)NCCn1ccc2ncnc(Nc3ccc(Oc4cccc(C(F)(F)F)c4)c(Cl)c3)c21", "LOC_OS01G01410-cb001", 1.78),
    ("OCCn1cc(-c2ccc3c(c2)CC/C3=N\\O)c(-c2ccncc2)n1", "LOC_OS01G01410-cb001", 0.98),
    ("COc1cccc2cc(-c3nc([C@H]4CC[C@H](C(=O)O)CC4)n4ncnc(N)c34)[nH]c12", "LOC_OS01G01410-cb001", 0.94),
    ("CCc1nc(C(N)=O)c(Nc2ccc(N3CCC(N4CCN(C)CC4)CC3)c(OC)c2)nc1NC1CCOCC1", "LOC_OS01G01410-cb001", 4.13),
]
